system: Staphylococcus aureus; assay: Antibacterial activity against Staphylococcus aureus ATCC 9144 after 48 hrs by microdilution method; assay type: functional; conditions: ATCC 9144, 48 h
Reported log10 of MIC is given for each of the following compounds.
Record value = log10 of MIC given in mg/L.

Below, each entry is followed by its recorded log10 of MIC result.
- Cc1cc(C(=O)NCCNC(=N)N)ccc1NS(=O)(=O)c1cc(C(C)(C)C)cc(C(C)(C)C)c1.Cl: 0.90
- CC(C)(C)c1cc(C(C)(C)C)cc(S(=O)(=O)Nc2cc3ccccc3cc2C(=O)NCCNC(=N)N)c1.Cl: 0.60
- CN(c1ccc(C(=O)NCCCN)cc1)S(=O)(=O)c1cc(C(C)(C)C)cc(C(C)(C)C)c1.Cl: 1.20

Q. Please state recorded log10 of MIC (tested on Staphylococcus aureus) of CC(C)(C)c1cc(C(C)(C)C)cc(S(=O)(=O)N2CCC(C(=O)NCCNC(=N)N)CC2)c1.Cl
A. 1.20

Q. Report log10 of MIC for CC(C)(C)c1cc(C(C)(C)C)cc(S(=O)(=O)Nc2ccc(CC(=O)NCCN)cc2)c1.Cl tested on Staphylococcus aureus.
A. 1.51
